- Tested on: PPARg homodimer (NR concentration 180 nM)
- TEST NAME: PBM binding z-score (relative to random genomic background probes); higher = stronger binding; sequences stand for … in GC…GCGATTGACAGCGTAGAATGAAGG
Please mark label 1 if the recorded PBM binding z-score is equal to or greater than 0.4, and label 0 if it falls below.

Is the recorded value of PBM binding z-score equal to or greater than 0.4 for this sequence? CGTCCAAGGTCAATGCTAGGTCTGTGAAAGCATT
label 1

Reported PBM binding z-score reaches at least 0.4 for ATACCAAGGTGATCGTGAGGTCGTTGAGACTAAC ?
label 1

Does the reported PBM binding z-score for AGAATGAGGTTATACGTACATCAGGGAAGAAAGT fall at or above the 0.4 mark?
label 1

Determine whether this sequence has PBM binding z-score no lower than 0.4: ATCGAAAGGTCTTGAGGTGAGTATACAGAAAGGC
label 0

Exam item: decide whether the reported PBM binding z-score for TCATATAGGTAATACAGGTGAAAGTTGGCATCTA is at least 0.4.
label 1

Check this sequence for PBM binding z-score at or above 0.4: ACAGACGGGTGATGAAGGTAACTCAGGCTATCAT
label 0

Dear colleague, could you confirm whether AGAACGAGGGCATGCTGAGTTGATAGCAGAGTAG has PBM binding z-score at or above 0.4?
label 0

Kindly determine if PBM binding z-score recorded for CCTGCTAGGTCAATCGTCAGCTAAAGCAGCTCGC is above or exactly 0.4.
label 1

Is PBM binding z-score at least 0.4? Consider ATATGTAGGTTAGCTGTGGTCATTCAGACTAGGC
label 1

Please check the record TCTAGTTGGTCAAGGAGGTCACACACGACGGGTA and state if its PBM binding z-score is at or above 0.4.
label 1

Form field: PBM binding z-score at least 0.4? Entry: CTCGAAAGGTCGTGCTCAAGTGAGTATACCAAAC
label 1

Decide: PBM binding z-score of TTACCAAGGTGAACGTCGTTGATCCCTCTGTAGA >= 0.4?
label 0

In plain terms: is recorded PBM binding z-score at least 0.4 for ACCTCTAGGTAAGACTCAGTTCAGTGAAGAACGC ?
label 0

Could you verify whether the entry CGAACTAGGTCATTGACTGGACAGTGAATAGTAA shows PBM binding z-score of no less than 0.4?
label 1

Hi, just wondering whether TAGCGTAGGTCAGATCGGGCCAGTATACGCTATA shows PBM binding z-score of 0.4 or higher.
label 0

Test whether the sequence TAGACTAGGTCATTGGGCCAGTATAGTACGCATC records PBM binding z-score of 0.4 or higher.
label 1

Given CAAACTAGGTGACCGGAAGGTCAAAGTCCGCATG , state whether its PBM binding z-score is at least 0.4.
label 1

Test whether the sequence CCTAGTTGGTCAAGGTCGCACACGCTATAGGTAC records PBM binding z-score of 0.4 or higher.
label 1

Could you verify whether the entry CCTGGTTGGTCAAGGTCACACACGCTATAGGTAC shows PBM binding z-score of no less than 0.4?
label 1

Hello, I need to know if AGAATGAGGTTATTAAGCTCAGGGAATTGCGGTC has measured PBM binding z-score not below 0.4. Thanks!
label 0

Textbook exercise: given the entry ACAGACAGGTGAGTGAAGGAAACTCAGCTGGACG , state whether its PBM binding z-score is greater than or equal to 0.4.
label 0

Threshold query (PBM binding z-score >= 0.4) on TGAATGAGGTTATAAGATCAGGTAACGTTGCAAA
label 0

Hi, just wondering whether CAAACTAGGTCGCCGGAAGGTCAAAGTCCGCATG shows PBM binding z-score of 0.4 or higher.
label 1

Does the reported PBM binding z-score for CCTACTGGGCCACGAATGGTCATTGATTCAGTGA fall at or above the 0.4 mark?
label 0

Does PBM binding z-score meet or surpass 0.4 for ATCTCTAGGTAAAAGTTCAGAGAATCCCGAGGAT ?
label 1

Please check the record GCTATTAGTAGAAAGGGCAACCGAATGATTCTCG and state if its PBM binding z-score is at or above 0.4.
label 1

Does the sequence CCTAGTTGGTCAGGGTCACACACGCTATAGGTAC have recorded PBM binding z-score that is 0.4 or more?
label 1

Could you tell me if the measured PBM binding z-score of TCGTATAGGTAAAAGGTGAAAGTCGGTGTGGTAA reaches 0.4 or more?
label 1

Does the sequence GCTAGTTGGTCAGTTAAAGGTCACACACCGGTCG have recorded PBM binding z-score that is 0.4 or more?
label 1

Tell me whether PBM binding z-score is at least 0.4 here: TCTAGCAGGCCAGAGGTTCACTCAAGAGGTACGG
label 0

Hi, just wondering whether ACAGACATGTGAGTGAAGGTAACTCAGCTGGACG shows PBM binding z-score of 0.4 or higher.
label 0

Is it the case that TAGCCTAGGTCATCGGGCCAGTATAGTACGCATC has PBM binding z-score reaching or exceeding 0.4?
label 1

PBM binding z-score >= 0.4 for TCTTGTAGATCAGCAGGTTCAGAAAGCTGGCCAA ?
label 0

Item TCATATAGGAAAATGCTAGGTGAAAGTCCGATCT with PBM binding z-score of 0.4 or above?
label 1

Determine whether measured PBM binding z-score meets or exceeds 0.4 for CCGAGTAGGTTATGAGGCATTCAGGCAACGGTGA
label 1

Identify whether the reported PBM binding z-score of the following sequence is 0.4 or greater: GCTTACGGGTAAAAGGTTATAGCATGAATAGAAT
label 1

Kindly determine if PBM binding z-score recorded for TCGAGTAGGTTACCAATGGGGCAATCAGCTTTCT is above or exactly 0.4.
label 0

Identify whether the reported PBM binding z-score of the following sequence is 0.4 or greater: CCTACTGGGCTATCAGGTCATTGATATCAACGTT
label 1

Given the entry TGGAGTAGGTTAGGGGCATTCAGAATGGCGTCGA , answer whether its PBM binding z-score meets or surpasses 0.4.
label 1

Hi team, for CCTAGCAGGCCAATCTGGGTCACACAAGGCTTGA , is the recorded PBM binding z-score at or above 0.4?
label 1

Check the entry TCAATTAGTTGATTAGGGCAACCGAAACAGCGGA : does PBM binding z-score equal or exceed 0.4?
label 0

Identify whether the reported PBM binding z-score of the following sequence is 0.4 or greater: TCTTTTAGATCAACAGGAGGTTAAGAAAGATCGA
label 1

Please tell me: is the sequence CCTGACGGGTCACTCCAGGTTATAGCATCGGAGT at or over 0.4 in terms of PBM binding z-score?
label 1

Entry TGTCAAAGTTCAGAGGTAACGTAAGTATCCACAC : is its PBM binding z-score no less than 0.4?
label 1

Has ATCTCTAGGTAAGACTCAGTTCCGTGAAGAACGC a recorded PBM binding z-score greater than or equal to 0.4?
label 0

Please check the record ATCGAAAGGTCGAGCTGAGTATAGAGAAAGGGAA and state if its PBM binding z-score is at or above 0.4.
label 1

In plain terms: is recorded PBM binding z-score at least 0.4 for CAATCTAGGTCACCGGAAGGTCAAAGTCCGCATG ?
label 1

Please indicate if the recorded PBM binding z-score for CGTCCAAGATCATAGGAGGTCAGTGAAGACAGAT meets or exceeds 0.4.
label 1

# bool: PBM binding z-score of CCGACTGGGGCAGATAGGTTACCATACCATCCGG >= 0.4
label 0

Is reported PBM binding z-score greater than or equal to 0.4 here: CGAAATAGGTCATTGACAGGACAGTGAATAGTAA
label 1

Reference source: the supplement of paper PMC6555819
